The measured values listed here are drawn from patent US12024503B2.

Target: JAK2 (Homo sapiens)
Construct: purchased Carna Biosciences
Sequence (O60674 whole entry): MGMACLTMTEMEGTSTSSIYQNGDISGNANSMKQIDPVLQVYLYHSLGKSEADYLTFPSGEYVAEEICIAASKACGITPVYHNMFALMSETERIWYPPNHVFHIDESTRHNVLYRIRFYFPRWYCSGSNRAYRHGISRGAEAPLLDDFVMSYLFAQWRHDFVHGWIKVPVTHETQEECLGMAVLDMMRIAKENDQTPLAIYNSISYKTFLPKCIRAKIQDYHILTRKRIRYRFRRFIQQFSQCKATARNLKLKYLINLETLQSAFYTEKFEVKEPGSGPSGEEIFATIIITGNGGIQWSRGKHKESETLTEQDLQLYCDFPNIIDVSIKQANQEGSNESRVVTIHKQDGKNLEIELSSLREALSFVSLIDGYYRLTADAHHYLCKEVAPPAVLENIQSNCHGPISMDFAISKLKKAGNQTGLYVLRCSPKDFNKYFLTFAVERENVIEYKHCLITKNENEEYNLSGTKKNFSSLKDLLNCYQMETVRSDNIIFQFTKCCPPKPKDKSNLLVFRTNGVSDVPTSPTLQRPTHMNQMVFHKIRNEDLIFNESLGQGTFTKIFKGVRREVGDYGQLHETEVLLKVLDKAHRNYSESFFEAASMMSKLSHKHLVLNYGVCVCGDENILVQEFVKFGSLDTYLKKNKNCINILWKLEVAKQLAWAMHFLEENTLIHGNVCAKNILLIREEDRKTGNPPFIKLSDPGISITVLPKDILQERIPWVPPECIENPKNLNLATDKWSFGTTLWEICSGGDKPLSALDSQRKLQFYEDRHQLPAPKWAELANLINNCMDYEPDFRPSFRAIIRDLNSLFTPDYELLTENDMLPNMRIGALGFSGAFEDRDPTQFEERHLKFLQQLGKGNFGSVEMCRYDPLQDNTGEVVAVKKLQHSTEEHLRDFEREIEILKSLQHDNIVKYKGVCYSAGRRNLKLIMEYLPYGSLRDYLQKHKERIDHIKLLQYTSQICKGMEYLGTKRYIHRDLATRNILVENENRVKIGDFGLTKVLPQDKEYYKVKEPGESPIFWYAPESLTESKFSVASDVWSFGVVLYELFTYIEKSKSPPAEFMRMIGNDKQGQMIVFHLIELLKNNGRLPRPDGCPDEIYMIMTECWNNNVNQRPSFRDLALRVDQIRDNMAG
Assay: JAK2 microfluidic kinase assay (Caliper EZ Reader II, FAM labeled peptide substrate)
Type: biochemical
Conditions: (0.25 nM), 1 mM ATP; Table 2; read-out: IC50 JAK2 (0.25 nM) (1 mM ATP)
Answer each item with its documented IC50.
The reply should contain only the number, in nM.

Value of measured IC50 for the entry Cc1cnc(Nc2cnn(C3CCN(C)CC3)c2)nc1-c1ccc(NCC2(C#N)CC2)cc1 [Example 43] : 3.12

Value of measured IC50 for the entry Cc1cnc(Nc2cnn(C)c2)nc1-c1ccc(OCC(C)(C)C#N)cc1 [Example 38] : 1.09

Value of measured IC50 for the entry Cc1cnc(Nc2cnn(C3CCN(C)CC3)c2)nc1-c1ccc(OCC(C)(C)C#N)c(F)c1 [Example 18] : 0.427

Value of measured IC50 for the entry Cc1cnc(Nc2cnn(C3CC3)c2)nc1-c1ccc(OCC(C)(C)C#N)c(F)c1 [Example 4] : 0.425

Value of measured IC50 for the entry N#CC1(CNc2ccc(-c3nc(Nc4cnn(C5CCNCC5)c4)ncc3Cl)cc2)CC1 [Example 44] : 1.46

Value of measured IC50 for the entry Cc1cnc(Nc2cnn(C3CCNCC3)c2)nc1-c1ccc(OCC(C)(C)C#N)c(F)c1 [Example 39] : 0.377

Value of measured IC50 for the entry Cc1cnc(Nc2cnn(C3CC3)c2)nc1-c1ccc(N(C)CC(C)(C)C#N)c(F)c1 [Example 35] : 1.66
